Measured tissue uptake at 120 h, listed per entry.
# ASSAY_NAME: Biodistribution of 177Lu-labeled αMSH analogues in mice bearing B16F10 mouse melanoma
# Assay type: in vivo, C57BL/6J mice
# RUN_CONDITIONS: mouse, fat, iv, total radioactivity; 120 h p.i., C57BL/6J mice, B16F10 melanoma; read-out: Biodistribution, Fat

CCCC[C@H](NC(=O)CN1CCC(NC(=O)CN2CCN(CC(=O)O)CCN(CC(=O)O)CCN(CC(=O)O)CC2)CC1)C(=O)N[C@H]1CC(=O)NCCCC[C@@H](C(N)=O)N(C)C(=O)[C@H](Cc2c[nH]c3ccccc23)N(C)C(=O)[C@H](CCCNC(=N)N)N(C)C(=O)[C@@H](Cc2ccccc2)NC(=O)[C@H](Cc2c[nH]cn2)N(C)C1=O [^177Lu-labeled CCZ01099, metal not drawn]: 0.01 %ID/g

Please give the documented tissue uptake at 120 h of CCCC[C@H](NC(=O)CN1CCC(NC(=O)[C@H](CCCCNC(=O)CN2CCN(CC(=O)O)CCN(CC(=O)O)CCN(CC(=O)O)CC2)NC(=O)[C@H](CCC(=O)O)NC(=O)CCCc2ccc(I)cc2)CC1)C(=O)N[C@H]1CC(=O)NCCCC[C@@H](C(N)=O)N(C)C(=O)[C@H](Cc2c[nH]c3ccccc23)N(C)C(=O)[C@H](CCCNC(=N)N)N(C)C(=O)[C@@H](Cc2ccccc2)NC(=O)[C@H](Cc2c[nH]cn2)N(C)C1=O [^177Lu-labeled CCZ01088, metal not drawn]
0.03 %ID/g

Please give the documented tissue uptake at 120 h of CCCC[C@H](NC(=O)CN1CCC(NC(=O)[C@H](CCCCNC(=O)CN2CCN(CC(=O)O)CCN(CC(=O)O)CCN(CC(=O)O)CC2)NC(=O)[C@H](CCC(=O)O)NC(=O)CCCc2ccc(I)cc2)CC1)C(=O)N[C@H]1CC(=O)NCCCC[C@@H](C(N)=O)NC(=O)[C@H](Cc2c[nH]c3ccccc23)NC(=O)[C@H](CCCNC(=N)N)NC(=O)[C@@H](Cc2ccccc2)NC(=O)[C@H](Cc2c[nH]cn2)NC1=O [^177Lu-labeled CCZ01082, metal not drawn]
0.05 %ID/g
